tested on: Voltage-Sensitive Ca2+ Channel L-type (dihydropyridine site); assay: Radioligand binding, [3H]nitrendipine, Cerep; conditions: 100 µM, rat cerebral cortex synaptoneurosomal preparations
ENDPOINT: % Inhibition of Control Specific Binding, Voltage-Sensitive Ca2+ Channel L-typ
Field note: include the unit after the figure.

Examples with answers:
Cc1ccsc1C1CC(=O)N(CCCN2CCOCC2)C1=O (racemic) [Compound 4] ... 39.7%
Cc1ccsc1C1CC(=O)N(CCCN2CCN(c3ccc(Cl)c(Cl)c3)CC2)C1=O (racemic) [Compound 9] ... −9.5%
Cc1ccsc1C1CC(=O)N(CCN2CCOCC2)C1=O (racemic) [Compound 3] ... −1.1%

Proceeding to the next compound to report its % Inhibition of Control Specific Binding, Voltage-Sensitive Ca2+ Channel L-typ.
Respond only with % Inhibition of Control Specific Binding, Voltage-Sensitive Ca2+ Channel L-typ recorded for Cc1ccsc1C1CC(=O)N(CCCN2CCN(c3cccc(C(F)(F)F)c3)CC2)C1=O (racemic) [Compound 6]
69.9%
